# System: Staphylococcus aureus FDA 209PJc-1
# assay notes: Antibacterial activity, agar-dilution MIC, organism No. 1
# Type: cell-based
# measurement setup: Staphylococcus aureus, FDA209PJC1; Organism No. 1, bouillon-agar; read-out: Minimum Inhibitory Concentration
# From the text: Agar-dilution method was used for determination of the antibacterial activity and antifungal activity while using bouillon-agar culture medium, and the minimum inhibitory concentration of the specimen was expressed by μg/ml of the culture medium.
observed property: MIC

// known answers, use as guide
compound: [C-]#[N+]C12CC3(/C=C/C(=O)N[C@@H](Cc4ccccc4)C(=O)OCc4ccccc4)OC3C1O2 (stereo partly drawn) [compound 31]
observed property: MIC
data value: > 200 mg/L
//
compound: [C-]#[N+]C12CC3(/C=C/C(=O)Nc4ccc(Cl)cc4)OC3C1O2 (stereo not drawn) [compound 40]
observed property: MIC
data value: < 0.05 mg/L

Value of measured MIC for the entry [C-]#[N+]C12CC3(/C=C/C(=O)Nc4nccs4)OC3C1O2 (stereo not drawn) [compound 65] : < 0.1 mg/L
